# System: recombinant human anti-SARS-CoV antibody 03-018
# Assay type: binding
# Set-up: unit not given here
quantity.kind: Binding of antibody 03-018 to looped/cyclic peptides of the N protein of SARS-CoV Urbani

> print(dat)
    sequence.content  reading
 1   PEASLPYGANKEGIV      0.2
 2   VTLLPAADMDDFSRQ      0.2
 3   KTDEAQPLPQRQKKQ      0.2
 4   GNFGDQDLIRQGTDY      0.2
 5   LLNKHIDAYKTFPPT      0.2
 6   YRRATRRVRGGDGKM      0.2
 7   IGTRNPNNNAATVLQ      0.3
 8   IGMEVTPSGTWLTYH      0.2
 9   HIDAYKTFPPTEPKK      0.2
10   HWPQIAQFAPSASAF      0.2
11   NNNAATVLQLPQGTT      0.3
12   NGGRNGARPKQRRPQ      0.3
13   QYNVTQAFGRRGPEQ      0.3
14   YNVTQAFGRRGPEQT      0.2
15   MEVTPSGTWLTYHGA      0.2
16   EGALNTPKDHIGTRN      0.3
17   MSDNGPQSNQRSAPR      0.3
18   FTALTQHGKEELRFP      0.2
19   QLESKVSGKGQQQQG      0.3
20   TYHGAIKLDDKDPQF      0.1
21   QQQGQTVTKKSAAEA      0.2
22   LLLLDRLNQLESKVS      0.2
23   SLPYGANKEGIVWVA      0.2
24   QQQQGQTVTKKSAAE      0.2
25   SDNGPQSNQRSAPRI      0.2
26   NAATVLQLPQGTTLP      0.2
27   NSTPGSSRGNSPARM      0.3
28   WVATEGALNTPKDHI      0.2
29   QGVPINTNSGPDDQI      0.1
30   EVTPSGTWLTYHGAI      0.2
31   NPNNNAATVLQLPQG      0.3
32   DKDPQFKDNVILLNK      0.4
33   GTRNPNNNAATVLQL      0.3
34   TDNNQNGGRNGARPK      0.2
35   TDYKHWPQIAQFAPS      0.2
36   ASGGGETALALLLLD      0.2
37   MKELSPRWYFYYLGT      0.2
38   ALLLLDRLNQLESKV      0.3
39   SGTWLTYHGAIKLDD      0.2
40   GPEASLPYGANKEGI      0.2
41   GMEVTPSGTWLTYHG      0.2
42   DLIRQGTDYKHWPQI      0.2

Hey, just so you know, these numbers are from patent US20070128217A1.
